Assay: clinical;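 also: patient plasma drug levels measured by validated HPLC with mass spectrometric detection after a 3 h fast, PK parameters from non-compartmental analysis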
Conditions: human, plasma, oral, 20 mg
READOUT_KIND: Cmax (µM)
Quick note: give the figure in µM, leave out the unit.

q: Quick one: Cmax of CC(=O)N1CCN(CCOc2cc(OC(C)C)c3c(Nc4c(Cl)cnc5c4OCO5)ncnc3c2)CC1 [AZD0424] ?
a: 0.59

* * *

Experiment: clinical
Settings: human, plasma, oral, 60 mg
READOUT_KIND: Cmax (µM)
API: value field is a number in µM; no unit string.

q: Report Cmax for "CC(=O)N1CCN(CCOc2cc(OC(C)C)c3c(Nc4c(Cl)cnc5c4OCO5)ncnc3c2)CC1" please.
a: 1.38

* * *

Experiment: clinical
Conditions: human, plasma, oral
READOUT_KIND: Tmax

q: Name the recorded Tmax for "CC(=O)N1CCN(CCOc2cc(OC(C)C)c3c(Nc4c(Cl)cnc5c4OCO5)ncnc3c2)CC1" .
a: < 2 h

* * *

Assay: clinical
Conditions: human, plasma, oral, 10 mg
READOUT_KIND: Cmax (nM)
Quick reminder: number only, in nM, skip the unit.

q: Suppose we examine the compound "CC(=O)N1CCN(CCOc2cc(OC(C)C)c3c(Nc4c(Cl)cnc5c4OCO5)ncnc3c2)CC1" ; what Cmax value has been reported?
a: 210

* * *

Assay: clinical
Details: human, plasma, oral, 40 mg
READOUT_KIND: Cmax (µM)
Respond numerically; units are µM and should not be typed.

q: For the molecule shown here, "CC(=O)N1CCN(CCOc2cc(OC(C)C)c3c(Nc4c(Cl)cnc5c4OCO5)ncnc3c2)CC1" , give the reported Cmax.
a: 0.715

* * *

Test: clinical
Settings: human, plasma, oral, 80 mg
READOUT_KIND: AUC(0-t)
Include the unit right after the number.

q: Given "CC(=O)N1CCN(CCOc2cc(OC(C)C)c3c(Nc4c(Cl)cnc5c4OCO5)ncnc3c2)CC1" , state its recorded AUC(0-t).
a: 14.1 µM·h

* * *

Test: clinical
Details: human, plasma, oral, 40 mg
READOUT_KIND: AUC(0-t) (µM·h)
The response must be a number in µM·h with no trailing unit.

q: So what does the record say about AUC(0-t) for "CC(=O)N1CCN(CCOc2cc(OC(C)C)c3c(Nc4c(Cl)cnc5c4OCO5)ncnc3c2)CC1" ?
a: 6.81

* * *

Assay: clinical
Conditions: human, plasma, oral, 60 mg
READOUT_KIND: half-life (h)
// note: answer is a bare numeric in h

q: Reported half-life, compound CC(=O)N1CCN(CCOc2cc(OC(C)C)c3c(Nc4c(Cl)cnc5c4OCO5)ncnc3c2)CC1 [AZD0424] : ____
a: 8.2

* * *

Assay: clinical
Details: human, plasma, oral, 150 mg
READOUT_KIND: AUC(0-t) (µM·h)
Just the number please, in µM·h, no unit attached.

q: What value of AUC(0-t) has been recorded for this entry: "CC(=O)N1CCN(CCOc2cc(OC(C)C)c3c(Nc4c(Cl)cnc5c4OCO5)ncnc3c2)CC1"
a: 25.6

* * *

Test: clinical
Details: human, plasma, oral, 120 mg
READOUT_KIND: half-life (h)
Answer format: numeric, h implied, no suffix.

q: Report half-life for "CC(=O)N1CCN(CCOc2cc(OC(C)C)c3c(Nc4c(Cl)cnc5c4OCO5)ncnc3c2)CC1" please.
a: 7.8

* * *

Experiment: clinical
Settings: human, plasma, oral, 120 mg
READOUT_KIND: Cmax
In your response, put the unit directly after the numeric value.

q: Sample "CC(=O)N1CCN(CCOc2cc(OC(C)C)c3c(Nc4c(Cl)cnc5c4OCO5)ncnc3c2)CC1" — what was its Cmax?
a: 2650 nM

* * *

Assay: clinical
Details: human, plasma, oral, 120 mg
READOUT_KIND: AUC(0-t) (µM·h)
Express it in µM·h; write the number only.

q: AUC(0-t) for CC(=O)N1CCN(CCOc2cc(OC(C)C)c3c(Nc4c(Cl)cnc5c4OCO5)ncnc3c2)CC1 [AZD0424] ?
a: 24.9

* * *

Assay: clinical
Details: human, plasma, oral, 20 mg
READOUT_KIND: half-life (min)
Unit min implied. Number only.

q: What value of measured half-life is listed for "CC(=O)N1CCN(CCOc2cc(OC(C)C)c3c(Nc4c(Cl)cnc5c4OCO5)ncnc3c2)CC1" ?
a: 408

* * *

Test: clinical
Details: human, plasma, oral, 80 mg
READOUT_KIND: half-life (h)
Quick note: give the figure in h, leave out the unit.

q: Which measured half-life value corresponds to "CC(=O)N1CCN(CCOc2cc(OC(C)C)c3c(Nc4c(Cl)cnc5c4OCO5)ncnc3c2)CC1" ?
a: 9.4

* * *

Assay: clinical
Details: human, plasma, oral, 150 mg
READOUT_KIND: Cmax (µM)
Give the number; µM is assumed, so skip it.

q: I would be grateful if you could share the reported Cmax for CC(=O)N1CCN(CCOc2cc(OC(C)C)c3c(Nc4c(Cl)cnc5c4OCO5)ncnc3c2)CC1 [AZD0424] .
a: 4.11
